Sourced from paper PMC5540273

Tested on: MYLK
experimental-context: concentration: 1 μM,replicates: in singlicate; n = 1;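 further: KINOMEscan kinase panel screen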
Please use true (1) whenever %Inh is not below 10%, and false (0) whenever it is.

1. CN1CCN(CCCNc2nccc(-c3c(-c4ccc(F)cc4)nn4cc(C(N)=O)ccc34)n2)CC1 [GW622475]
true (1)
2. FC(F)(F)c1cc(Br)cc(Nc2nccc(-c3cnn4ncccc34)n2)c1 [GW810578]
false (0)
3. COc1cccc(OC)c1C(=O)Nc1cccc(-c2nn3ccccc3c2-c2ccnc(Nc3cccc(F)c3)n2)c1 [GSK361065]
true (1)
4. O=C(NCC1CC1)c1ccc(-c2cc(C(=O)NC3CC3)ccc2F)cc1 [GW810445]
false (0)
5. CS(=O)c1ccc(-c2coc3ccc(-c4n[nH]c(=O)o4)cc23)cc1 (centres unmarked)
true (1)
6. C[C@@H](Oc1cc(-n2cnc3cc(-c4cnn(C)c4)ccc32)sc1C(N)=O)c1ccccc1Cl [GSK580432]
true (1)
7. C[C@@H](Oc1cc(-n2cnc3ccc(-c4ccncc4)cc32)sc1C(N)=O)c1ccccc1Cl [GSK483724]
true (1)

###

Tested on: HUNK
experimental-context: concentration: 1 μM,replicates: in singlicate; n = 1
quantity-measured: %Inh (%)

1) CN1CCN(CCNc2nc3cc(Oc4ccc(NC(=O)Nc5cc(C(F)(F)F)ccc5F)cc4)ccc3[nH]2)CC1.Cl.Cl
41
2) O=C(NCC1CC1)c1ccc(-c2cc(C(=O)NC3CC3)ccc2F)cc1
56
3) COc1ccc(Nc2nccc(N3CCC(NC(=O)c4cccc(C#N)c4)C3)n2)cc1 (centres unmarked)
0
4) Cn1ccc2ncnc(Oc3ccc(NC(=O)Nc4cncc(C(F)(F)F)c4)c(Cl)c3)c21
0
5) COc1cccc(OC)c1C(=O)Nc1cccc(-c2nn3ccccc3c2-c2ccnc(Nc3cccc(F)c3)n2)c1
15
6) CCn1c(-c2nonc2N)nc2cncc(CNC3CCNCC3)c21.Cl
0
7) COc1cccc(CNC(=O)NC2CCN(c3ccnc(Nc4cc(OC)c(OC)c(OC)c4)n3)C2)c1 (centres unmarked)
0
8) Cn1ccc2ncnc(Oc3ccc(NC(=O)Nc4ccnc(C(F)(F)F)c4)c(Cl)c3)c21
8
9) C[C@@H]1CNc2c(sc3ccc4nc(-c5ccncc5)ccc4c23)C(=O)N1
7
10) Cc1cccc(-c2nc(Nc3ccncc3)c3sccc3n2)n1
20
11) C[C@@H]1CNc2c(sc3ccc4nc(-c5ccc(O)cc5)ccc4c23)C(=O)N1
5
12) COc1cc(Nc2nccc(N3CCC(NC(=O)c4cccc(C#N)c4)C3)n2)cc(OC)c1OC (centres unmarked)
0
13) CCOC(=O)N1CCC(n2cnc(-c3ccc(F)cc3)c2-c2ccnc(N)n2)CC1
0
14) COc1cc2c(Nc3ccc(NC(=O)c4ccccc4)cc3)ncnc2cc1OCCCN1CCOCC1
0
15) O=c1[nH]cc(-c2ccc(O)cc2)c2sc(-c3ccncc3)cc12
0
16) c1ccc(Oc2ccc(Nc3ccnc4ccc(-c5ccccn5)cc34)cc2)cc1
0
17) Cl.c1ccc(Oc2ccc(Nc3ccnc4cc(-c5ccc(CN6CCNCC6)o5)ccc34)cc2)nc1
1
18) CC(C(=O)NC1CCN(c2ccnc(Nc3ccc(F)cc3)n2)C1)c1ccc(Cl)cc1 (centres unmarked)
0
19) CC(=O)Nc1nc2cnc(Nc3cc(NC(=O)c4cccc(CC(C)(C)C#N)c4)ccc3C)nc2s1
2
20) CN(c1cccc(CNc2nc(Nc3ccc4c(c3)CC(=O)N4)ncc2C(F)(F)F)c1)S(C)(=O)=O
0

###

Test system: ULK2
experimental-context: concentration: 1 μM,replicates: in singlicate; n = 1
Recorded %Inh, one value per entry.
quantity-measured: %Inh (%)

1) N#Cc1cccc(C(=O)NC2CCN(c3ccnc(Nc4ccc(F)cc4)n3)C2)c1 (stereo not drawn) [GSK1379708]
0
2) O=c1[nH]cc(-c2ccc(O)cc2)c2sc(-c3ccncc3)cc12 [GSK1033723]
2
3) CCNCC(Cc1ccccc1)NC(=O)c1cc(Br)c(-c2ccnc3[nH]ccc23)s1.Cl.Cl (stereo not drawn) [GSK1383280]
0
4) Cc1cccc2c(-c3ccncc3)c(-c3ccc(F)cc3)nn12.Cl [GW461487]
0
5) COc1cc2c(Nc3ccc(NC(=O)c4ccccc4)cc3)ncnc2cc1OCCCN1CCOCC1 [GSK301329]
0
6) NC(=O)c1ccc(-c2cc3ncnc(SCC(=O)O)c3s2)cc1
0
7) COc1ccc(Nc2nccc(N3CCC(NC(=O)c4cccc(C#N)c4)C3)n2)cc1 (stereo not drawn) [GSK1379730]
0
8) C[C@@H](Oc1cc(-n2cnc3cc(-c4cnn(C)c4)ccc32)sc1C(N)=O)c1ccccc1Cl [GSK580432]
10
9) O=C(Nc1n[nH]c2cc(-c3ccco3)ccc12)C1CC1 [SB-737447]
0

###

Tested on: LOK
Construct: gene STK10
experimental-context: concentration: 1 μM,replicates: in singlicate; n = 1
quantity-measured: %Inh

1. O=c1[nH]cc(-c2ccc(O)cc2)c2sc(-c3ccncc3)cc12 [GSK1033723]
0%
2. Cn1ccc2ncnc(Oc3ccc(NC(=O)Nc4cncc(C(F)(F)F)c4)c(Cl)c3)c21
99.2%
3. FC(F)(F)c1cc(Br)cc(Nc2nccc(-c3cnn4ncccc34)n2)c1 [GW810578]
25%
4. COc1cc2c(Nc3ccc(NC(=O)c4ccccc4)cc3)ncnc2cc1OCCCN1CCOCC1 [GSK301329]
77%
5. CC(C(=O)NC1CCN(c2ccnc(Nc3ccc(F)cc3)n2)C1)c1ccc(Cl)cc1 (centres unmarked) [GSK1379713]
0%
6. Cc1ccc(C(=O)Nc2ccc(Oc3ccc4nc(NC(=O)C5CC5)cn4c3)c(F)c2)c(=O)n1-c1ccccc1
99.9%
7. Cc1nnc(-c2ccc3occ(-c4ccc(S(C)=O)cc4)c3n2)o1 (centres unmarked)
0%
8. O=C(Nc1cccc(C(F)(F)F)c1)c1cccc(Oc2ccc3nccn3n2)c1
24%

###

Test system: EPHA8
experimental-context: concentration: 1 μM,replicates: in singlicate; n = 1
quantity-measured: %Inh (%)

1. COC(=O)c1cccc(NC(=O)NC2CCN(c3ccnc(Nc4cc(OC)c(OC)c(OC)c4)n3)C2)c1 (centres unmarked) [GSK1379767]
7
2. Cc1ccc(CC(=O)N2CCc3cc(-c4cn(C)c5ncnc(N)c45)ccc32)cc1 [GSK2634758]
13
3. COc1cc(Nc2nccc(N3CCC(NC(=O)c4cccc(C#N)c4)C3)n2)cc(OC)c1OC (centres unmarked) [GSK1379751]
0
4. O=C(NOCC1CC1)c1cc(Br)c(F)c(F)c1Nc1ccc(I)cc1Cl
0
5. COC(=O)Nc1nc2cc(Oc3ccc(NC(=O)Nc4cc(C(F)(F)F)ccc4Cl)cc3)ccc2[nH]1.Cl [GW697465]
99.7
6. Nc1nccc(-c2ccc3c(N)n[nH]c3c2)n1 [GSK1034945]
13
7. CN(c1cccc(CNc2nc(Nc3ccc4c(c3)CC(=O)N4)ncc2C(F)(F)F)c1)S(C)(=O)=O
0
8. Cc1ccn2nc(-c3ccc(F)cc3)c(-c3ccncc3)c2c1.Cl [GW457859]
0

###

Test system: DMPK2
Construct: gene CDC42BPG
experimental-context: concentration: 1 μM,replicates: in singlicate; n = 1
quantity-measured: %Inh (%)

1) O=C(Nc1n[nH]c2cc(-c3ccco3)ccc12)C1CC1
0
2) CC(C)c1nc(-c2cccc(NS(=O)(=O)c3ccccc3)c2)c(-c2ccnc(Nc3ccc4c(c3)CN(C)CC4)n2)s1
61
3) Cn1ccc2ncnc(Oc3ccc(NC(=O)Nc4cccc(C(F)(F)F)c4)c(Cl)c3)c21
0
4) CN1CCN(CCCNc2nccc(-c3c(-c4ccc(F)cc4)nn4cc(C(N)=O)ccc34)n2)CC1
44
5) COc1cc(Nc2nccc(N3CCC(NC(=O)c4cccc(C#N)c4)C3)n2)cc(OC)c1OC (centres unmarked)
1
6) C[C@@H](Oc1cc(-n2cnc3ccc(-c4ccncc4)cc32)sc1C(N)=O)c1ccccc1Cl
2
7) FC(F)(F)c1cc(Br)cc(Nc2nccc(-c3cnn4ncccc34)n2)c1
20
8) c1ccc(Oc2ccc(Nc3ccnc4ccc(-c5ccccn5)cc34)cc2)cc1
15

###

Tested on: LIMK1
experimental-context: concentration: 1 μM,replicates: in singlicate; n = 1
quantity-measured: %Inh (%)

1. CN(c1cccc(CNc2nc(Nc3ccc4c(c3)CC(=O)N4)ncc2C(F)(F)F)c1)S(C)(=O)=O
0
2. COc1cc2ncn(-c3cc(OCC4CCCCC4)c(C(N)=O)s3)c2cc1OC
2
3. CS(=O)c1ccc(-c2coc3ccc(-c4n[nH]c(=O)o4)cc23)cc1 (stereo not shown)
0
4. C[C@@H](Oc1cc(-n2cnc3cc(-c4cnn(C)c4)ccc32)sc1C(N)=O)c1ccccc1Cl
0

###

System: FER
experimental-context: concentration: 1 μM,replicates: in singlicate; n = 1
quantity-measured: %Inh (%)

1) CC(C(=O)NC1CCN(c2ccnc(Nc3ccc(F)cc3)n2)C1)c1ccc(Cl)cc1 (centres unmarked)
46
2) COC(=O)c1cccc(NC(=O)NC2CCN(c3ccnc(NCc4ccc(F)cc4)n3)CC2)c1
10
3) CN(c1cccc(CNc2nc(Nc3ccc4c(c3)CC(=O)N4)ncc2C(F)(F)F)c1)S(C)(=O)=O
65
4) C[C@@H]1CNc2c(sc3ccc4nc(-c5ccc(O)cc5)ccc4c23)C(=O)N1
0
5) c1ccc(Oc2ccc(Nc3ccnc4ccc(-c5ccccn5)cc34)cc2)cc1
18
6) Cc1ccc(CC(=O)N2CCc3cc(-c4cn(C)c5ncnc(N)c45)ccc32)cc1
19
7) CSc1nccc(-c2c(-c3ccc(F)cc3)ncn2CCCN2CCOCC2)n1.Cl
0
8) O=C1NCCc2[nH]c(-c3ccncc3)cc21
4
9) CN(c1ccccc1CNc1nc(Nc2ccc3c(c2)CC(=O)N3)ncc1C(F)(F)F)S(C)(=O)=O
82
10) Nc1nccc(-c2ccc3c(N)n[nH]c3c2)n1
0
11) CC(=O)Nc1nc2cnc(Nc3cc(NC(=O)c4cccc(CC(C)(C)C#N)c4)ccc3C)nc2s1
0
